Attribute: log10 of IC50
studySystem: RON kinase (Homo sapiens, UniProt Q04912)
Sequence (Q04912 25-1400): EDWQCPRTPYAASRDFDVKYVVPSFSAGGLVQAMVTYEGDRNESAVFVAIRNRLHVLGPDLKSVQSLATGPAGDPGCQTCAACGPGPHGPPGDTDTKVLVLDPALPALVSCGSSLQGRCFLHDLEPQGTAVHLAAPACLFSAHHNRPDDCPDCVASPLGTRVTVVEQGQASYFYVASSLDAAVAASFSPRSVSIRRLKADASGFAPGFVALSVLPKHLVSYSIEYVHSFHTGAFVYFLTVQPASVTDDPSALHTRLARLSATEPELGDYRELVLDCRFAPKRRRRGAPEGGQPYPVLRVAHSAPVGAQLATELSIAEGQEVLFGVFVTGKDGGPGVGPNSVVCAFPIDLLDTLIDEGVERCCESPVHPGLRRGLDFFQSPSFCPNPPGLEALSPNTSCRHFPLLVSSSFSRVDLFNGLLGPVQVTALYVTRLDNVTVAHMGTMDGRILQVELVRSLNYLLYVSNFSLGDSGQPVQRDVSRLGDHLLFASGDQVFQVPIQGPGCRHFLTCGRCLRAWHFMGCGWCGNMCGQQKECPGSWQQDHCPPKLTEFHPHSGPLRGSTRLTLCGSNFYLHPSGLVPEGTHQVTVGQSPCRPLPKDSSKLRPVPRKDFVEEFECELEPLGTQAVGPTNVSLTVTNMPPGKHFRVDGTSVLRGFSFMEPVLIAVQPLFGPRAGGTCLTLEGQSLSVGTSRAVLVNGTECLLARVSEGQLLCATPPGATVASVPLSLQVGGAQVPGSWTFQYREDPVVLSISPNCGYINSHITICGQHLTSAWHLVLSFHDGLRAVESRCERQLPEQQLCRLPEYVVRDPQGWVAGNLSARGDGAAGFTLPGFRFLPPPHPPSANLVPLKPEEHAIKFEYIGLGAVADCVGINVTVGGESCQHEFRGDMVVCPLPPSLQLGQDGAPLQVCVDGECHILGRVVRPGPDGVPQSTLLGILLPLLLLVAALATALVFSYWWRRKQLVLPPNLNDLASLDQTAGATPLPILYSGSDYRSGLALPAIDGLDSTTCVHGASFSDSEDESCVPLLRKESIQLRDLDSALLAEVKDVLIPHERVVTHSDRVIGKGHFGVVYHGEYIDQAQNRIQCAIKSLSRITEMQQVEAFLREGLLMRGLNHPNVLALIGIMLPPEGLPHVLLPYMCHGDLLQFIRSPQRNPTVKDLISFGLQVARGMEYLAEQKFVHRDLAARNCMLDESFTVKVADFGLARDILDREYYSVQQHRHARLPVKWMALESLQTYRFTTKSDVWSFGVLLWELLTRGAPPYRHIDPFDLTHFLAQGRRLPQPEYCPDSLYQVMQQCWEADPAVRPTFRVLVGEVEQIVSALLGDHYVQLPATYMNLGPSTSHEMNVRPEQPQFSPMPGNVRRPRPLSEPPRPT
Counter-ions that a name gives are not always drawn.
# log10 transformed; quantity=IC50; unit=nM

Param item: CCOc1ccn(-c2ccccc2)c(=O)c1C(=O)Nc1ccc(Oc2ccnc3cc(-c4ccc(CN5CCN(C)CC5)cn4)sc23)c(F)c1.Cl [Example 34, Hydrochloride] ; param system: RON kinase (Homo sapiens, UniProt Q04912); output log10 of IC50: -0.64

Further cases:
Param item: CCOc1ccn(-c2ccc(OC)cc2)c(=O)c1C(=O)Nc1ccc(Oc2ccnc3cc(-c4ccc(CNCCOC)cn4)sc23)c(F)c1 [Example 15, Hydrochloride] ; param system: RON kinase (Homo sapiens, UniProt Q04912); output log10 of IC50: 0.47

Param item: CCOc1ccn(-c2ccc(F)cc2)c(=O)c1C(=O)Nc1ccc(Oc2ccnc3cc(-c4ccc(CN5CCOCC5)cn4)sc23)c(F)c1.Cl [Example 31, Hydrochloride] ; param system: RON kinase (Homo sapiens, UniProt Q04912); output log10 of IC50: -0.41

Param item: CCOc1ccn(-c2ccc(Cl)cc2)c(=O)c1C(=O)Nc1ccc(Oc2ccnc3cc(-c4ccc(CN5CCOCC5)cn4)sc23)c(F)c1 [Example 35, Hydrochloride] ; param system: RON kinase (Homo sapiens, UniProt Q04912); output log10 of IC50: 0.41

Param item: COCCNCc1ccc(-c2cc3nccc(Oc4ccc(NC(=O)c5cccn(-c6ccccc6)c5=O)cc4F)c3s2)nc1 [Example 5, Hydrochloride] ; param system: RON kinase (Homo sapiens, UniProt Q04912); output log10 of IC50: 0.06

Param item: COCCNCc1ccc(-c2cc3nccc(Oc4ccc(NC(=O)c5c(C)ccn(-c6ccc(F)cc6)c5=O)cc4F)c3s2)nc1.Cl [Example 25, Hydrochloride] ; param system: RON kinase (Homo sapiens, UniProt Q04912); output log10 of IC50: -0.64
